Recorded pKd for the following binders
- Measured target: T1, BoNT/C1 holotoxin (Clostridium botulinum, UniProt P18640 2-1291)
- T1 sequence: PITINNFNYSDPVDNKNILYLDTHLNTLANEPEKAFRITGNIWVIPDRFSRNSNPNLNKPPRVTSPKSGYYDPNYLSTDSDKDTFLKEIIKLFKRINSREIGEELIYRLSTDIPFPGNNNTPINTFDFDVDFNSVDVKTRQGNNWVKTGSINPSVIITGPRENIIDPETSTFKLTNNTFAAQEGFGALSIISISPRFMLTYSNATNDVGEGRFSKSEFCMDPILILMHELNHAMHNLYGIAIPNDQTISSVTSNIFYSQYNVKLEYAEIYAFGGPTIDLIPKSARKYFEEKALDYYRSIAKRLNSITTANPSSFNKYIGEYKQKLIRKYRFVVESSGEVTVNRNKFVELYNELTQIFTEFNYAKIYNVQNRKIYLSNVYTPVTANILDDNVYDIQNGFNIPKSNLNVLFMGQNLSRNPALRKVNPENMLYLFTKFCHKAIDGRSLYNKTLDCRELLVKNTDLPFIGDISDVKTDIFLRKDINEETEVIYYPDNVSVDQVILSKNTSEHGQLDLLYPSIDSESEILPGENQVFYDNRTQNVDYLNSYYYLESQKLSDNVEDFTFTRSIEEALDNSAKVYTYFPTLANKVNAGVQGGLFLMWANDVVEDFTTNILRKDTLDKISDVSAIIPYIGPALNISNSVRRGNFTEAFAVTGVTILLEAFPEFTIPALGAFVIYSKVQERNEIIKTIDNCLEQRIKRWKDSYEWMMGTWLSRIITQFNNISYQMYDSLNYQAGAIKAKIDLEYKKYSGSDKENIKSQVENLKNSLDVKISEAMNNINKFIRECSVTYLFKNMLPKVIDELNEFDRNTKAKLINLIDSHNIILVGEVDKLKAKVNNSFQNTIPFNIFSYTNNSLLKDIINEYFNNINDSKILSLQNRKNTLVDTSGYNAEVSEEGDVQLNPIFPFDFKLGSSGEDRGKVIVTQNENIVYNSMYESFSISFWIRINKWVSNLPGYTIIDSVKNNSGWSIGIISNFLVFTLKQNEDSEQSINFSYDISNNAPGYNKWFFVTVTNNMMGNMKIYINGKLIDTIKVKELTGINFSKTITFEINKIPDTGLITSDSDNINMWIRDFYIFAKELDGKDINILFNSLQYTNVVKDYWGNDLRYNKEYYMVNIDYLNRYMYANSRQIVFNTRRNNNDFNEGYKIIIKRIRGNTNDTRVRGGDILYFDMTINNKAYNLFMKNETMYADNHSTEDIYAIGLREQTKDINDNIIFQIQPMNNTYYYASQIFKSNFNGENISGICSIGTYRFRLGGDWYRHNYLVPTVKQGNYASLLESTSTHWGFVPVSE
- Assay notes: yeast scFv FACS
pKd is defined as minus the log10 of a concentration measured in mol/L.

Check out these entries, answers already filled in.
4C9 scFv (scFv, V domains shown, human) VH: QVQLVESGAEVKKPGASVKVSCTASGYTFAGYYMDWVRQAPGQGLEWMGRINPKSGDPNYEQKFQGRVTLTRDKSINTVYMELSRLKSDDTAIYYCARSVSGGAFDLWGRGTLVTVSS VL: DIVMTQSPSSLSASVGDRVTITCRASQSINSYLNWYQQKPGKVPRLLIYSASSLQSGVPSRFSGSGSGTDFTLTISSLQPDDFATYYCQQYKRYSSFGQGTKVEIK ... 7.53
4C1 scFv (scFv, V domains shown, human) VH: QVQLQESGPGLVKPSQTLSLTCAVSGGSINSGDYYWTWIRQHPGKGLEWIGNIYYTGRTYYNPSLQSRLTMSVDTSRTHFSLKLSAVTAADTAVYYCARGQDTSMVTRNFYYGLDVWGQGTTVTVSS VL: DIVMTQSPSFVSASVGDRVTITCRASQGISSYLAWYQQKPGKAPKLLIYAASTLQSGVPSRFSGSGSGTDFTLTISSLQPEDIATYYCQELSSYPLTFGGGTKLEIK ... 8.57

Query string: Looking for the measured pKd of 87C1 scFv (scFv, V domains shown, human) VH: QVQLQQSGGGVVQPGRSLRLSCAGSGFTLSTYGMHWVRQAPGKGLEWVAVISNDGSKEYYADSVKGRFAISRDNSKNTLSLQMNGLRAEDTAIYYCAKAIKSYSTIGGACNLWGQGTMVTVSS VL: DIVMTQSPSFLSASVGDRVTITCRASQSISSYLNWYQQKPGKAPKLLIYAASSLQSGVPSRFSGSRSGTYFTLTISSLQPEDFATYYCQQSYITWTFGQGTRLEIK , can you help?
Result string: 8.70
